Where do these numbers come from? They come from PubChem BioAssay AID1159580.

- assay info: chemical genetic growth profiling, strain panel (AID 1159580);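 note: tested at 20 µM; growth read once vehicle control cultures reached saturation at 30 °C; 1 = growth at the plate median or of vehicle wells; lower values mean less growth of the strain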
- experimental setup: S. cerevisiae deletion strains, growth OD, locus YOR080W, strain dia2, stronger effect = lower value
In all, about 5,500 compounds went through this assay and about 2,000 (36%) were called active. About 18% were inconclusive and are not listed. The list shows a part of the results.
property measured: normalized growth
One number for each entry.

See these solved cases before continuing.
• CCN(CC)CCOC(=O)C(Cc1cccc2ccccc12)CC1CCCO1 (stereo not given) = 1
• c1ccc2[nH]c(-c3cscn3)nc2c1 = 1.01
• COC(=O)[C@H]1[C@H]2C[C@@H]3c4[nH]c5cc(OC)ccc5c4CCN3C[C@H]2C[C@@H](OC(=O)c2cc(OC)c(OC)c(OC)c2)[C@@H]1OC = 0.982
• NCc1ccc(S(N)(=O)=O)cc1 = 0.996

Here is another compound to look at.
Task item: Give its normalized growth value. Item: C#C[C@]1(O)CCC2C3CCc4cc(OC)ccc4C3CC[C@@]21C (stereo not given in full)
Reply: 0.999

###

Answer each item with its documented normalized growth.
- assay info: chemical genetic growth profiling, strain panel (AID 1159580);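 note: tested at 20 µM; growth read once vehicle control cultures reached saturation at 30 °C; 1 = growth at the plate median or of vehicle wells; lower values mean less growth of the strain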
- experimental setup: S. cerevisiae deletion strains, growth OD, locus YPR141C, strain kar3, stronger effect = lower value
Screen size: about 5,500 compounds; about 2,000 (36%) were called active. About 18% were inconclusive and are not listed. This is one part of the list.
Answers are plain numbers.

Some solved entries appear below for comparison.
- COc1cc(O)cc(/C=C/c2ccccc2)c1: 0.95
- CCn1cc(C(=O)O)c(=O)c2ccc(C)nc21: 0.954
- CC12CCC(CC1)C(C)(C)O2: 1.03
- CCn1cc(C(=O)O)c(=O)c2cnc(N3CCNCC3)nc21: 0.981
- C/C=C/c1ccc(OC)cc1: 1.01

Consider the additional compound presented here.
Task item: Looking for the measured normalized growth of COc1ccc(C[C@H](N)C(=O)N[C@@H]2[C@@H](CO)OC(n3cnc4c(N(C)C)ncnc43)[C@@H]2O)cc1 (stereo partly specified) , can you help?
Reply: 1.03

###

- assay info: chemical genetic growth profiling, strain panel (AID 1159580);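 note: tested at 20 µM; growth read once vehicle control cultures reached saturation at 30 °C; 1 = growth at the plate median or of vehicle wells; lower values mean less growth of the strain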
- experimental setup: S. cerevisiae deletion strains, growth OD, locus YLR370C, strain arc18, stronger effect = lower value
Hit rate of the full screen: of about 5,500 compounds, about 2,000 (36%) were called active. Roughly 18% stayed inconclusive and do not appear here. The list shows a part of the results.
Kindly supply the reported normalized growth values for the records listed here.
Give bare numbers.

For orientation, consider the following solved cases.
- CC[C@@]1(C2O[C@@H](C3O[C@@](O)(CC)[C@H](C)C[C@@H]3C)C[C@@H]2C)CC[C@H]([C@]2(C)CCC3(C[C@H](O)[C@@H](C)[C@@H]([C@H](C)[C@@H](OC)[C@H](C)C(=O)O)O3)O2)O1 (stereo partly specified): 0.979
- NC(=O)c1ccc(N)nc1: 1
- CC[C@@H](C(=O)[C@@H](C)[C@@H](O)[C@H](C)[C@@H]1O[C@@H]([C@@H](CC)C(=O)O)CC[C@@H]1C)[C@H]1OC2(C=C[C@@H](O)[C@]3(CC[C@@](C)([C@H]4CC[C@](O)(CC)[C@H](C)O4)O3)O2)[C@H](C)C[C@@H]1C (stereo partly specified): 0.608
- O=C1N=C(O)CN1/N=C\c1ccc(-c2ccc([N+](=O)[O-])cc2)o1: 0.985
- CC1=CC(=O)CC(C)(C)C1(O)/C=C/C(C)=C\C(=O)O (stereo unspecified): 1.03
- O=C1CN(/N=C\c2ccc([N+](=O)[O-])o2)C(=O)N1: 0.985

Give normalized growth for each listed item.
1. C[C@H](COc1ccccc1)N[C@H](C)[C@H](O)c1ccc(O)cc1
2. Nc1nc2ncc(CNc3ccc(C(=O)N[C@@H](CCC(=O)O)C(=O)O)cc3)nc2c(=O)[nH]1
3. CCOC(N)=O

Reply:
1. 0.994
2. 0.994
3. 0.995

Need normalized growth for each of these compounds.
1. COC(=O)[C@H]1[C@H]2C[C@@H]3c4[nH]c5cc(OC)ccc5c4CCN3C[C@H]2C[C@@H](OC(=O)c2cc(OC)c(OC)c(OC)c2)[C@@H]1OC
2. CCOC(=O)c1ccc(N)cc1
3. CC(Cc1ccc(O)c(O)c1)(NN)C(=O)O (stereo unspecified)

Reply:
1: 0.976; 2: 1.01; 3: 1.01

For each of the compounds below, note its normalized growth.
1. CC[C@]1(O)CC2CN(CCc3c([nH]c4ccccc34)[C@@](C(=O)OC)(c3cc4c(cc3OC)N(C=O)[C@H]3[C@@](O)(C(=O)OC)[C@H](OC(C)=O)[C@]5(CC)C=CCN6CC[C@]43[C@@H]65)C2)C1 (stereo partly specified)
2. CC[C@@H]1[C@@H](O)N2C3C[C@H]1C1C(O)[C@]4(C[C@@H]12)c1ccccc1N(C)[C@@H]34 (stereo partly specified)
3. CN(Cc1cnc2nc(N)nc(N)c2n1)c1ccc(C(=O)NC(CCC(=O)O)C(=O)O)cc1 (stereo unspecified)
4. COc1ccccc1OCC(O)CN1CCN(CC(=O)Nc2c(C)cccc2C)CC1 (stereo unspecified)
5. CCN(CC)CCOC(=O)C(Cc1cccc2ccccc12)CC1CCCO1 (stereo unspecified)
6. O=C(O)c1cc(=O)c(O)c2c(O)c(O)ccc2c1

Reply:
1: 1.01; 2: 1.03; 3: 0.877; 4: 1.01; 5: 1.01; 6: 0.998
